Below, each entry is listed with its recorded growth.
System: MDA-MB-435 melanoma
PROCEDURE SUMMARY: NCI-60 one-dose screen, 48 h (100 = growth as untreated, 0 = no growth, -100 = all killed)
CONDITION INFO: 10 µM unless noted
Compounds without any hit were thinned out: in the full panel of roughly 83,000, 20% have a hit.
Answer with a number only, understood to be in %.

* Cc1ccc(C=C2C(Cl)=C(Cl)C(Cl)=C2Cl)cc1 | -61.9
* N#Cc1ccc(NC(=O)Nc2ccc(Oc3ccc(NC(=O)Nc4ccc(C#N)cc4)cc3)cc2)cc1 | 35.6
* COc1ccc(C2=NNC(c3cc(Cc4ccc(O)c(C5CC(c6ccc(OC)cc6)=NN5)c4)ccc3O)C2)cc1 (stereo not given) | 12.1
* O=C(CSCC(=O)N/N=C/c1ccccc1O)N/N=C\c1ccccc1O | 50.9

Turning to the following compound.
I have this compound here, Oc1[nH]c2ccccc2c1/C=c1/ccc2c(c1)N=C(c1cc(F)cc(F)c1)N=2 , and I need its recorded growth.
25.2
